Test system: LAD-2 cells
Test: LAD2 Degranulation Assay (Protocol 1), β-hexosaminidase release
Format: cell-based
Conditions: Homo sapiens, 1 μM Cortistatin-14, 30 minute preincubation, top concentration 3 μM
pIC50: −log10 of the molar value.
Quick rule: pIC50 of at least 7 means rule met, below that means rule not met.

Solved entries (count: 5):
Does pIC50 meet or surpass 7 for C[C@H](C(=O)Nc1coc(Cc2cc(F)cc(F)c2)n1)N1CCC(F)(F)[C@@H](c2cc[n+]([O-])cc2)C1 (single isomer, unassigned) ?
rule met

Same for Cc1nc(NC(=O)[C@H](C)N2CCC(F)(F)CC2)cn1Cc1cc(F)cc(F)c1 (single isomer, unassigned)
rule met

Same for C[C@@H](C(=O)Nc1noc(Cc2cc(F)cc(F)c2)n1)N1CCC(F)(F)[C@@H](c2cc[n+]([O-])cc2)C1 (single isomer, unassigned)
rule not met

Same for C[C@H](C(=O)Nc1cn(Cc2cc(F)cc(F)c2)c(C(F)(F)F)n1)N1CCC(F)(F)[C@@H](c2cc[n+]([O-])cc2)C1 (single isomer, unassigned)
rule met

Same for Cc1nc(NC(=O)[C@H](C)N2CCC(F)(F)[C@@H](c3cc[n+]([O-])cc3)C2)cn1Cc1cc(F)cc(F)c1 (single isomer, unassigned)
rule met

New cases:
Does pIC50 meet or surpass 7 for C[C@H](C(=O)Nc1cn(Cc2cc(F)cc(F)c2)cn1)N1CCC(F)(F)[C@@H](c2c[nH]c(=O)c(CO)c2)C1 (single isomer, unassigned) ?
rule met

Same for C[C@@H](C(=O)Nc1cn(Cc2cc(F)ccc2Cl)cn1)N1CCC(F)(F)[C@@H](c2cc[n+]([O-])cc2)C1
rule met

Same for C[C@@H](C(=O)Nc1cn(Cc2cc(F)cc(C#N)c2)cn1)N1CCC(F)(F)[C@@H](c2cc[n+]([O-])cc2)C1
rule not met

Same for O=C(Nc1cn(Cc2cc(F)cc(F)c2)cn1)[C@@H]1C(F)(F)C12CCC2
rule not met

Same for C[C@@H](C(=O)Nc1nc2cc3c(cc2s1)OCO3)N1CCC(F)(F)[C@@H](c2cc[n+]([O-])cc2)C1 (single isomer, unassigned)
rule met

Same for C[C@@H](C(=O)Nc1cn(Cc2ccc(F)cc2F)cn1)N1CCC(F)(F)[C@@H](c2cc[n+]([O-])cc2)C1 (single isomer, unassigned)
rule not met

###

Molecular target: human MRGPRX2 (Homo sapiens, UniProt Q96LB1)
Sequence (Q96LB1 1-330): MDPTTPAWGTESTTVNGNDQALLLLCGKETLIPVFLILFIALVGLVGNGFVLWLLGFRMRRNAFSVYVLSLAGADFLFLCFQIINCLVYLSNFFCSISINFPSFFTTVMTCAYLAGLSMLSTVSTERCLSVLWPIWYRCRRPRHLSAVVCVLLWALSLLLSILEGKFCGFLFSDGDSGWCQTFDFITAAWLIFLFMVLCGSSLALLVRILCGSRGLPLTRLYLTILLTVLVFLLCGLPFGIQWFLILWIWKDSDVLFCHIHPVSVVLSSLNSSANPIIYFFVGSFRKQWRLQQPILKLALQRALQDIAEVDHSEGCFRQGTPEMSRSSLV
Experiment: MRGPRX2 Activity Assay (IP-1 HTRF, antagonist mode)
Settings: FlpIn TRex-MRGPRX2-HEK293 cells; versus 1 μM Cortistatin-14 agonist; 30 minutes preincubation
assay.readout: pIC50
Give bare numbers, as −log10 of the molar value.

These recorded examples may help you get a feel for the data.
Bench note: what pIC50 did C[C@@H](C(=O)Nc1cn2c(n1)CC[C@@H]2c1cc(F)cc(F)c1)N1CCC2(CC2)[C@H](c2cc[n+]([O-])cc2)C1 (single isomer, unassigned) show?
6.64

Same for C[C@@H](C(=O)Nc1cn2c(n1)CC[C@@H]2c1cc(F)cc(F)c1)N1CCC(F)(F)[C@H](c2cc[n+]([O-])c(CO)c2)C1 (single isomer, unassigned)
8.01

Here's the next entry for you.
Bench note: what pIC50 did C[C@@H](C(=O)Nc1cn2c(n1)CC[C@H]2c1cc(F)cc(F)c1)N1CCC(F)(F)[C@@H](c2ccc(=O)[nH]c2)C1 (single isomer, unassigned) show?
7.70

###

Please provide measured IC50 for the entries that follow.
Tested on: LAD-2 cells
Assay: LAD2 Degranulation Assay (Protocol 1), β-hexosaminidase release
Assay type: cell-based
Conditions: Homo sapiens, 1 μM Cortistatin-14, 30 minute preincubation, top concentration 3 μM
One number for each entry, in µM.

These recorded examples may help you get a feel for the data.
Bench note: what IC50 did C[C@@H](C(=O)Nc1cn(Cc2cc(F)cc(F)c2F)cn1)N1CCC(F)(F)[C@@H](c2cc[n+]([O-])cc2)C1 [Compound 39] show?
0.0033

Same for C[C@H](C(=O)Nc1cn(Cc2cc(F)cc(F)c2)c(C(F)F)n1)N1CCC(F)(F)[C@@H](c2cc[n+]([O-])cc2)C1 (single isomer, unassigned) [Compound 83]
0.013

Same for C[C@H](C(=O)Nc1cn(Cc2cc(F)cc(F)c2)cn1)N1CCC(F)(F)[C@@H](c2cc[n+]([O-])cc2)C1 (single isomer, unassigned) [Compound 5]
0.014

New cases:
Bench note: what IC50 did C[C@H](C(=O)Nc1cn(Cc2cc(F)cc(F)c2)cn1)N1CCC(F)(F)[C@@H](c2ccc(=O)n(C)c2)C1 (single isomer, unassigned) [Compound 68] show?
0.03

###

Target: human MRGPRX2 (Homo sapiens, UniProt Q96LB1)
Experiment: MRGPRX2 Activity Assay (IP-1 HTRF, antagonist mode)
Conditions: FlpIn TRex-MRGPRX2-HEK293 cells; versus 1 μM Cortistatin-14 agonist; 30 minutes preincubation
Please provide measured pIC50 for the entries that follow.
Numbers only, as −log10 of the molar value.

Bench note: what pIC50 did C[C@H](C(=O)Nc1cn([C@@H](C)c2cc(F)cc(F)c2)cn1)N1CCC(F)(F)[C@@H](c2cc[n+]([O-])cc2)C1 (single isomer, unassigned) show?
6.63

Same for C[C@@H](C(=O)Nc1cn(Cc2cc(F)cc(F)c2)c(C(F)F)n1)N1CCC(F)(F)CC1
7.46

Same for C[C@@H](C(=O)Nc1cn(Cc2cc(F)cc(F)c2)c(C(F)F)n1)N1CCC(F)(F)[C@@H](c2c[nH]c(=O)c(CO)c2)C1 (single isomer, unassigned)
8.46

Same for [2H]C([2H])(c1cc(F)cc(F)c1)n1cnc(NC(=O)[C@H](C)N2CCC(F)(F)[C@@H](c3cc[n+]([O-])cc3)C2)c1
7.66

Same for C[C@@H](C(=O)Nc1cn(Cc2cc(F)ccc2Cl)cn1)N1CCC(F)(F)[C@@H](c2cc[n+]([O-])cc2)C1
8.10

Please look at the items below and tell me pIC50 for each one, in order.
1. C[C@@H](C(=O)Nc1cn(Cc2cc(F)cc(F)c2)cn1)N1CCC(F)(F)[C@@H](c2ccc(=O)[nH]c2)C1 (single isomer, unassigned)
2. C[C@@H](C(=O)Nc1cn(Cc2cc(F)cc(F)c2)cn1)N1CCC(F)(F)[C@@H](c2cc[n+]([O-])cc2)C1 (single isomer, unassigned)
3. C[C@@H](C(=O)Nc1cn(Cc2cc(F)c(Cl)cc2F)cn1)N1CCC(F)(F)[C@@H](c2cc[n+]([O-])cc2)C1
4. C[C@@H](C(=O)Nc1cn(Cc2cc(F)cc(F)c2F)cn1)N1CCC(F)(F)[C@@H](c2cc[n+]([O-])cc2)C1

6.36
5.75
6.05
8.39

###

Target: human MRGPRX2 (Homo sapiens)
Assay: MRGPRX2 Activity Assay (IP-1 HTRF, antagonist mode)
Conditions: FlpIn TRex-MRGPRX2-HEK293 cells; versus 1 μM Cortistatin-14 agonist; 30 minutes preincubation
Please provide measured IC50 for the entries that follow.
Give bare numbers, in nM.

Bench note: what IC50 did C[C@@H](C(=O)Nc1cn(Cc2ccc(Cl)c(F)c2)cn1)N1CCC(F)(F)[C@@H](c2cc[n+]([O-])cc2)C1 [Compound 47] show?
775

Same for C[C@@H](C(=O)Nc1cn(Cc2cc(F)cc(F)c2)c(Cl)n1)N1CCC(F)(F)[C@@H](c2cc[n+]([O-])cc2)C1 (single isomer, unassigned) [Compound 80]
755

New cases:
Bench note: what IC50 did C[C@@H](C(=O)Nc1nc2cc3c(cc2s1)OCO3)N1CCC(F)(F)[C@@H](c2cc[n+]([O-])cc2)C1 (single isomer, unassigned) [Compound 12] show?
196

###

Biological target: human MRGPRX2 (Homo sapiens, UniProt Q96LB1)
Sequence (Q96LB1 1-330): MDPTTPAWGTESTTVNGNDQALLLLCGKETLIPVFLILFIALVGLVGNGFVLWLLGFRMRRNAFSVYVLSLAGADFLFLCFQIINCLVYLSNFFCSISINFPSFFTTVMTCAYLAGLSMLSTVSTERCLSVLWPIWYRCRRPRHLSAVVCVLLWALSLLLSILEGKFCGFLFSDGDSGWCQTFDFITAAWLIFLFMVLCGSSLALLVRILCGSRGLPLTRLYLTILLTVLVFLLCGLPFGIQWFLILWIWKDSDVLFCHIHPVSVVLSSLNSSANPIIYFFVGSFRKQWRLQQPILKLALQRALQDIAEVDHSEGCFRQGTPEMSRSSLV
Experiment: MRGPRX2 Activity Assay (IP-1 HTRF, antagonist mode)
Settings: FlpIn TRex-MRGPRX2-HEK293 cells; versus 1 μM Cortistatin-14 agonist; 30 minutes preincubation
assay.readout: IC50

These recorded examples may help you get a feel for the data.
Bench note: what IC50 did C[C@@H](C(=O)Nc1cn2c(n1)CC[C@@H]2c1cc(F)cc(F)c1)N1CCC(F)(F)[C@@](C)(c2cc[n+]([O-])cc2)C1 (single isomer, unassigned) show?
> 30 µM

Same for C[C@@H](C(=O)Nc1cn2c(n1)CC[C@@H]2c1cc(F)cc(F)c1)N1CCC(F)(F)[C@@H](c2ccc(=O)[nH]c2)C1 (single isomer, unassigned)
> 30 µM

Here's the next entry for you.
Bench note: what IC50 did C[C@@H](C(=O)Nc1cn2c(n1)CC[C@@H]2c1cc(F)cc(F)c1)N1CCC(F)(F)[C@H](c2ccc(=O)[nH]c2)C1 (single isomer, unassigned) show?
> 30 µM
